- target.desc: CB1 (Homo sapiens, UniProt P21554)
- Sequence (P21554 whole entry): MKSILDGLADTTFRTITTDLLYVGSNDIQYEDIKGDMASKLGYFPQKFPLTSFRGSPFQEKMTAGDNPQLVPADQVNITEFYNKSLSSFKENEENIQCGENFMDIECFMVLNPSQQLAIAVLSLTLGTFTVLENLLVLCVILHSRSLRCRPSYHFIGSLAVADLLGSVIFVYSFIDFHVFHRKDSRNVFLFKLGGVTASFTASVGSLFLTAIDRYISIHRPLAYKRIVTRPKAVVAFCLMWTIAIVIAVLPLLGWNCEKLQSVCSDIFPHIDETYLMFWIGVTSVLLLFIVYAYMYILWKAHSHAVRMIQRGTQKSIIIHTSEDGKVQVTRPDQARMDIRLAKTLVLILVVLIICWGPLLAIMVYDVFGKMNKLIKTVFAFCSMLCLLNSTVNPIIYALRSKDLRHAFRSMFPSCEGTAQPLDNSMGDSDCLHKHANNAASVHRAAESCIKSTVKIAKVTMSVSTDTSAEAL
- protocol: CB1 Gαq16-coupled intracellular calcium mobilization assay in CHO-K1 cells
- Format: cell-based
Would you kindly list Kb for each of these compounds?
Give bare numbers, in µM.

Consider the worked cases shown below.
Query block: Can you share its Kb? I mean this compound: CCCNC(=O)NCC1CCC(CNC(=O)c2nn(-c3ccc(Cl)cc3Cl)c(-c3ccc(Cl)cc3)c2C)CC1 (stereo not shown) [Compound 21c]
Result block: 0.486

Query block: Now consider Cc1c(C(=O)NCC2CCC(CNC(=O)NC(C)C)CC2)nn(-c2ccc(Cl)cc2Cl)c1-c1ccc(Cl)cc1 (stereo not shown) [Compound 21b] .
Result block: 0.351

Query block: Please do the same for Cc1c(C(=O)N2CCC(NC(=O)Nc3ccc(N(C)C)cc3)(c3ccccc3)CC2)nn(-c2ccc(Cl)cc2Cl)c1-c1ccc(Cl)cc1 [Compound 17e] as well.
Result block: 0.264

Query block: Now give it for CCNC(=O)N1CCC[C@@H](NC(=O)c2nn(-c3ccc(Cl)cc3Cl)c(-c3ccc(Cl)cc3)c2C)C1 [Compound 20e] too.
Result block: 0.171

Provide each entry's Kb from the list below.
1. Cc1c(C(=O)N[C@H]2CCCN(C(=O)OC(C)(C)C)C2)nn(-c2ccc(Cl)cc2Cl)c1-c1ccc(Cl)cc1 [Compound 19a]
2. Cc1c(C(=O)N[C@H]2CCCN(C(=O)NC(C)(C)C)C2)nn(-c2ccc(Cl)cc2Cl)c1-c1ccc(Cl)cc1 [Compound 19i]
3. CC(=O)N1CCC(NC(=O)c2nn(-c3ccc(Cl)cc3Cl)c(-c3ccc(Cl)cc3)c2C)CC1 [Compound 18c]
4. Cc1c(C(=O)NC2CCN(S(C)(=O)=O)CC2)nn(-c2ccc(Cl)cc2Cl)c1-c1ccc(Cl)cc1 [Compound 18d]

Result block:
1. 0.842
2. 0.206
3. 0.195
4. 0.269

* * *

- target.desc: CB1 (Homo sapiens, UniProt P21554)
- protocol: CB1 Gαq16-coupled intracellular calcium mobilization assay in CHO-K1 cells
- Assay type: cell-based
Checkbox rule: Kb lower than 600 nM = rule met; Kb not lower than 600 nM = rule not met.

Worked set:
Query block: Hello, is Kb of the following compound strictly smaller than 600 nM? Cc1c(C(=O)N[C@@H]2CCCN(C(=O)NC(C)(C)C)C2)nn(-c2ccc(Cl)cc2Cl)c1-c1ccc(Cl)cc1 [Compound 20i]
Result block: rule met

Query block: Do the same for CC(=O)N1CCC[C@@H](NC(=O)c2nn(-c3ccc(Cl)cc3Cl)c(-c3ccc(Cl)cc3)c2C)C1 [Compound 20c] please
Result block: rule met

Query block: Another: CCNC(=O)N1CCC[C@H](NC(=O)c2nn(-c3ccc(Cl)cc3Cl)c(-c3ccc(Cl)cc3)c2C)C1 [Compound 19e]
Result block: rule met

Query block: Could you do the same for `Cc1c(C(=O)N2CCC(C(=O)O)(c3ccccc3)CC2)nn(-c2ccc(Cl)cc2Cl)c1-c1ccc(Cl)cc1` , please?
Result block: rule not met

Query block: Same again, this time with Cc1c(C(=O)N[C@@H]2CCCNC2)nn(-c2ccc(Cl)cc2Cl)c1-c1ccc(Cl)cc1 [Compound 20b]
Result block: rule not met

Further cases:
Query block: Lab log: compare recorded Kb with 600 nM; is it strictly lower for Cc1c(C(=O)N[C@H]2CCCNC2)nn(-c2ccc(Cl)cc2Cl)c1-c1ccc(Cl)cc1 [Compound 19b] ?
Result block: rule not met

Query block: Try this compound too: CCCCNC(=O)N1CCC[C@@H](NC(=O)c2nn(-c3ccc(Cl)cc3Cl)c(-c3ccc(Cl)cc3)c2C)C1 [Compound 20h]
Result block: rule met
